Read-out: Interleukin-1 alpha (IL1a), IL1A (gene 3552)
assay_explanation: BSK_LPS_IL1a: BioMAP Diversity Plus: LPS Assay for Interleukin-1 alpha (IL1a) Biomarker Activity (AID 2283080)
conditions_used: primary human HUVEC with PBMC; actives raise or lower the signal
Calls of active or inactive are those of the source. How the source made its calls: active means hit-call score of the fitted dose curve at least 0.9, where 1 is the maximum; inactive means score below 0.9.
Possible outcomes: Yes for active, No for inactive

{"compound": "O=C(Nc1ccccc1)Nc1ccnc(Cl)c1", "category_label": "No"}
{"compound": "COc1nc(NC(C)C)nc(NC(C)C)n1", "category_label": "No"}
{"compound": "COC(=O)C(C)Oc1ccc(Oc2ccc(Cl)cc2Cl)cc1 (stereo not given)", "category_label": "No"}
{"compound": "CON(C)C(=O)Nc1ccc(Cl)c(Cl)c1", "category_label": "No"}
{"compound": "COc1nc(C)nc(NC(=O)NS(=O)(=O)c2ccccc2Cl)n1", "category_label": "No"}
{"compound": "N#CC(CCc1ccc(Cl)cc1)(Cn1cncn1)c1ccccc1 (stereo not given)", "category_label": "No"}
{"compound": "CCCCC(CC)COC(=O)c1ccccc1C(=O)OCC(CC)CCCC (stereo not given)", "category_label": "No"}
{"compound": "CCON=C(CC)C1=C(O)CC(c2c(C)cc(C)cc2C)CC1=O (stereo not given)", "category_label": "No"}
{"compound": "CCNc1nc(Cl)nc(NC(C)C)n1", "category_label": "No"}
{"compound": "OC(c1ccc(Cl)cc1)(c1cncnc1)c1ccccc1Cl (stereo not given)", "category_label": "No"}
{"compound": "CN(C)C(=S)SSC(=S)N(C)C", "category_label": "Yes"}
{"compound": "COC(=O)C=C(C)OP(=O)(OC)OC", "category_label": "No"}
{"compound": "C=CCC1=C(C)C(OC(=O)C2C(C=C(C)C)C2(C)C)CC1=O (stereo not given)", "category_label": "Yes"}
{"compound": "CCCC1COC(Cn2cncn2)(c2ccc(Cl)cc2Cl)O1 (stereo not given)", "category_label": "No"}
{"compound": "CC(C)Oc1cc(-n2nc(C(C)(C)C)oc2=O)c(Cl)cc1Cl", "category_label": "Yes"}
{"compound": "CS/C(C)=N/OC(=O)N(C)SN(C)C(=O)O/N=C(\\C)SC", "category_label": "Yes"}
{"compound": "CCCN(CCC)c1c([N+](=O)[O-])cc(S(N)(=O)=O)cc1[N+](=O)[O-]", "category_label": "Yes"}
{"compound": "COc1cnc(OC)n2nc(NS(=O)(=O)c3c(OCC(F)F)cccc3C(F)(F)F)nc12", "category_label": "No"}
{"compound": "C=CC1(C)OC(=O)N(c2cc(Cl)cc(Cl)c2)C1=O (stereo not given)", "category_label": "No"}
{"compound": "Cc1cc(Cl)ccc1OCC(=O)O", "category_label": "No"}
{"compound": "COc1nc(C)nc(NC(=O)NS(=O)(=O)c2ccccc2CCC(F)(F)F)n1", "category_label": "No"}
{"compound": "CC(C)C1(C)N=C(c2nc3ccccc3cc2C(=O)O)NC1=O (stereo not given)", "category_label": "No"}
{"compound": "Cc1c(F)c(F)c(COC(=O)C2C(/C=C(\\Cl)C(F)(F)F)C2(C)C)c(F)c1F (stereo not given)", "category_label": "Yes"}
{"compound": "CC1COC(Cn2cncn2)(c2ccc(Oc3ccc(Cl)cc3)cc2Cl)O1 (stereo not given)", "category_label": "Yes"}
{"compound": "COP(=S)(OC)Oc1nc(Cl)c(Cl)cc1Cl", "category_label": "Yes"}

====

target_or_test_system: human Phosphodiesterase 5 (PDE5), PDE5A (gene 8654)
assay_explanation: NVS_ENZ_hPDE5: NovaScreen (NVS) Enzymatic Assay for human Phosphodiesterase 5 (PDE5) (AID 2283194)
Results filed as inconclusive are left out. Active and inactive are the calls of the source. The calls were made as follows: active = hit-call score of the fitted dose curve at least 0.9, where 1 is the maximum; inconclusive = response in the unintended direction; inactive = score below 0.9.
Possible outcomes: active, inactive

{"molecule": "O=C(Nc1ccccc1)Nc1ccnc(Cl)c1", "category_label": "active"}
{"molecule": "CCCN(CCC)c1c([N+](=O)[O-])cc(S(N)(=O)=O)cc1[N+](=O)[O-]", "category_label": "inactive"}
{"molecule": "CC1COC(Cn2cncn2)(c2ccc(Oc3ccc(Cl)cc3)cc2Cl)O1 (centres undefined)", "category_label": "inactive"}
{"molecule": "CCOP(=S)(OCC)SCn1c(=O)oc2cc(Cl)ccc21", "category_label": "inactive"}

====

Read-out: Cytochrome P450 4A22 (Homo sapiens)
assay_explanation: LTEA_HepaRG_CYP4A22: Life Technologies and Expression Analysis (LTEA) Assay for Cytochrome P450 4A22 (CYP4A22) using HepaRG (AID 2283495)
conditions_used: mRNA level, 48 h; actives raise or lower the signal
Calls of active or inactive are those of the source. Rule for the calls: active = hit-call score of the fitted dose curve at least 0.9, where 1 is the maximum; inactive = score below 0.9.
Possible outcomes: T = active, F = inactive

{"compound": "O=C(Nc1ccccc1)Nc1ccnc(Cl)c1", "category_label": "T"}
{"compound": "CCNc1nc(Cl)nc(NCC)n1", "category_label": "F"}
{"compound": "CC(C)(C)c1ccc(CSc2cnn(C(C)(C)C)c(=O)c2Cl)cc1", "category_label": "T"}
{"compound": "C#CCOS(=O)OC1CCCCC1Oc1ccc(C(C)(C)C)cc1 (stereo unspecified)", "category_label": "F"}
{"compound": "CS/C(C)=N/OC(=O)N(C)SN(C)C(=O)O/N=C(\\C)SC", "category_label": "F"}
{"compound": "CN(C)C(=S)SSC(=S)N(C)C", "category_label": "F"}

====

Read-out: CYP2E1 (gene 1571)
assay_explanation: LTEA_HepaRG_CYP2E1: Life Technologies and Expression Analysis (LTEA) Assay for CYP2E1 using HepaRG (AID 2283485)
conditions_used: mRNA level, 48 h; actives raise or lower the signal
The source made the active and inactive calls. Rule for the calls: active = hit-call score of the fitted dose curve at least 0.9, where 1 is the maximum; inactive = score below 0.9.
Possible outcomes: Yes for active, No for inactive

{"molecule": "CC1=C(C(=O)Nc2ccccc2)SCCO1", "category_label": "Yes"}
{"molecule": "Cc1c(F)c(F)c(COC(=O)C2C(/C=C(\\Cl)C(F)(F)F)C2(C)C)c(F)c1F (centres undefined)", "category_label": "Yes"}
{"molecule": "CCCCOC(=O)c1ccccc1C(=O)OCCCC", "category_label": "No"}
{"molecule": "CCc1nn(C)c(C(=O)NCc2ccc(C(C)(C)C)cc2)c1Cl", "category_label": "Yes"}

====

target_or_test_system: human Opioid Receptor Mu (Opiate Mu), OPRM1 (gene 4988)
assay_explanation: NVS_GPCR_hOpiate_mu: NovaScreen (NVS) G Protein-Coupled Receptor Assay for human Opioid Receptor Mu (Opiate Mu) (AID 2283290);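 further: hits lower bound tracer signal versus DMSO meaning displacement of the ligand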
Inconclusive results are not listed. The source made the active and inactive calls. How the source made its calls: active means hit-call score of the fitted dose curve at least 0.9, where 1 is the maximum; inconclusive means response in the unintended direction; inactive means score below 0.9.
Possible outcomes: active, inactive

{"compound": "CCOP(=S)(OCC)SCn1c(=O)oc2cc(Cl)ccc21", "category_label": "active"}
{"compound": "CNC(=S)S", "category_label": "inactive"}
{"compound": "CO/C=C(/C(=O)OC)c1ccccc1Oc1cc(Oc2ccccc2C#N)ncn1", "category_label": "inactive"}
{"compound": "COC(=O)N(OC)c1ccccc1COc1ccn(-c2ccc(Cl)cc2)n1", "category_label": "active"}
{"compound": "CS/C(C)=N/OC(=O)N(C)SN(C)C(=O)O/N=C(\\C)SC", "category_label": "inactive"}
{"compound": "N#CC(CCc1ccc(Cl)cc1)(Cn1cncn1)c1ccccc1 (configuration not stated)", "category_label": "inactive"}
{"compound": "CCCC1COC(Cn2cncn2)(c2ccc(Cl)cc2Cl)O1 (configuration not stated)", "category_label": "active"}

====

Read-out: Cytochrome P450 2B6 (Homo sapiens) (UniProt P20813)
assay_explanation: CLD_CYP2B6_24hr: CellzDirect (CLD) Gene Expression Assay for xenobiotic metabolism (CYP2B6) at 24 hours (AID 2283686)
Method: CLD_24hr is a cell-based, multiplexed-readout assay that uses hepatocyte, a human liver primary cell, with measurements taken at 24 hours after chemical dosing in a 96-well plate.CLD_CYP2B6_24hr is one of 16 assay component(s) measured or calculated from the CLD_24hr assay. […] Furthermore, this assay endpoint can be referred to as a primary readout. […]
Results filed as inconclusive are left out. Activity calls are given as the source filed them. The calls were made as follows: active = hit-call score of the fitted dose curve at least 0.9, where 1 is the maximum; inconclusive = response in the unintended direction; inactive = score below 0.9.

{"compound": "CON(C)C(=O)Nc1ccc(Cl)c(Cl)c1", "AC50": "0.735 µM (active)"}
{"compound": "CCOc1cc(Oc2ccc(C(F)(F)F)cc2Cl)ccc1[N+](=O)[O-]", "AC50": "inactive"}
{"compound": "CCON=C(CC)C1=C(O)CC(c2c(C)cc(C)cc2C)CC1=O (centres undefined)", "AC50": "inactive"}
{"compound": "COC(=O)C=C(C)OP(=O)(OC)OC", "AC50": "inactive"}
{"compound": "C=CC1(C)OC(=O)N(c2cc(Cl)cc(Cl)c2)C1=O (centres undefined)", "AC50": "7.15 µM (active)"}
{"compound": "CCc1nn(C)c(C(=O)NCc2ccc(C(C)(C)C)cc2)c1Cl", "AC50": "inactive"}
{"compound": "COc1nc(NC(C)C)nc(NC(C)C)n1", "AC50": "inactive"}
{"compound": "COc1nc(C)nc(NC(=O)NS(=O)(=O)c2ccccc2Cl)n1", "AC50": "inactive"}
{"compound": "CC1COC(Cn2cncn2)(c2ccc(Oc3ccc(Cl)cc3)cc2Cl)O1 (centres undefined)", "AC50": "0.000442 µM (active)"}
{"compound": "N#Cc1nn(-c2c(Cl)cc(C(F)(F)F)cc2Cl)c(N)c1S(=O)C(F)(F)F (centres undefined)", "AC50": "1.9 µM (active)"}
{"compound": "CC1=C(C(=O)Nc2ccccc2)SCCO1", "AC50": "6 µM (active)"}
{"compound": "C=CCC1=C(C)C(OC(=O)C2C(C=C(C)C)C2(C)C)CC1=O (centres undefined)", "AC50": "inactive"}
{"compound": "OC(c1ccc(Cl)cc1)(c1cncnc1)c1ccccc1Cl (centres undefined)", "AC50": "1.24 µM (active)"}
{"compound": "CCCCNC(=O)n1c(NC(=O)OC)nc2ccccc21", "AC50": "inactive"}
{"compound": "COC(=O)N(OC)c1ccccc1COc1ccn(-c2ccc(Cl)cc2)n1", "AC50": "inactive"}
{"compound": "CC(C)C1(C)N=C(c2nc3ccccc3cc2C(=O)O)NC1=O (centres undefined)", "AC50": "inactive"}
{"compound": "CO/C=C(/C(=O)OC)c1ccccc1Oc1cc(Oc2ccccc2C#N)ncn1", "AC50": "7.02 µM (active)"}
{"compound": "CCNc1nc(Cl)nc(NCC)n1", "AC50": "9.74 µM (active)"}
{"compound": "CCOC(=O)C(Cl)Cc1cc(-n2nc(C)n(C(F)F)c2=O)c(F)cc1Cl (centres undefined)", "AC50": "6.33 µM (active)"}
{"compound": "CC(C)Oc1cc(-n2nc(C(C)(C)C)oc2=O)c(Cl)cc1Cl", "AC50": "0.829 µM (active)"}
{"compound": "C#CCOS(=O)OC1CCCCC1Oc1ccc(C(C)(C)C)cc1 (centres undefined)", "AC50": "3.2 µM (active)"}
{"compound": "CCCCC(CC)COC(=O)c1ccccc1C(=O)OCC(CC)CCCC (centres undefined)", "AC50": "inactive"}
{"compound": "Oc1ccccc1-c1ccccc1", "AC50": "6.24 µM (active)"}
{"compound": "CCNc1nc(Cl)nc(NC(C)C)n1", "AC50": "3.92 µM (active)"}
